experiment: A CellTox Green Cytotoxicity Assay to monitor cytotoxicity in HepG2 cells - 32 hour (AID 1224883); details: CellTox Green fluorescence; series mostly up to 76.8 µM; further: nearly all actives have a fitted effect of over 50% in size
Inconclusive results are not listed. Activity calls are given as the source filed them. The call rests on the fitted dose curve; in most records, active means well fitted activation curve with a large enough effect in the repeat runs; inconclusive means weak or mixed curves; inactive means flat fitted curve, though single readings scatter.
Possible outcomes: 1 for active, 0 for inactive

molecule	assignedLabel
O=C(c1ccc(O)cc1O)c1ccc(O)cc1O	0
CCCCCCC[N+](CC)(CC)CCCCc1ccc(Cl)cc1	1
Cc1cccc(S(=O)(=O)O)c1C	0
Cc1[nH]nc2c1N=C(c1ccccc1Cl)c1cc([N+](=O)[O-])ccc1N2	0
COc1cc(/C=C/C(=O)O[C@H]2CC[C@]34C[C@]35CC[C@]3(C)[C@@H]([C@H](C)CCC=C(C)C)CC[C@@]3(C)[C@@H]5CC[C@H]4C2(C)C)ccc1O	0
O=CC=C(c1ccccc1)c1ccccc1	0
CCN(CCC#N)c1ccc(N=Nc2c(Cl)cc([N+](=O)[O-])cc2Cl)cc1	0
CC1=C(/C=C/C(C)=C/C=C/C(C)=C/C=O)C(C)(C)CCC1	1
[Cl][Bi]([Cl])([c]1ccccc1)([c]1ccccc1)[c]1ccccc1	1
NNC(=O)c1cccc(C(=O)NN)c1	0
CCCCCCCCCCCCCCCC[N+](C)(C)CCN(Cc1ccc(OC)cc1)c1ncccn1	1
CCN1/C(=C/C=C/c2sc3ccccc3[n+]2CC)Sc2ccccc21	1
CCCC(=O)OC[C@@H](OC(=O)CCC)[C@@H](OC(=O)CCC)[C@H](Cn1c2nc(=O)[nH]c(=O)c-2nc2cc(C)c(C)cc21)OC(=O)CCC	1
Cc1[nH]cnc1C[C@H]1CCc2c(C)c3ccccc3n2C1=O	1
Nc1ccc2c3c(cccc13)-c1ccccc1-2	1
[Cl][Au]([Cl])[Cl]	1
C[C@@H]1C[C@H]2[C@@H]3CCC4=CC(=O)C=C[C@]4(C)[C@@]3(Cl)[C@@H](O)C[C@]2(C)[C@@]1(OC(=O)c1ccco1)C(=O)CCl	0
O=c1c(-c2ccccc2)c1-c1ccccc1	1
NNc1nc(-c2ccccc2)cs1	0
CC[C@@]1(O)C(=O)OCc2c1cc1n(c2=O)Cc2c-1nc1ccccc1c2/C=N/OC(C)(C)C	1
CN(C)[C@@H]1C(=O)C(C(N)=O)=C(O)[C@@]2(O)C(=O)C3=C(O)c4c(O)cccc4C[C@H]3C[C@@H]12	0
CCCCCCCCCOC(=O)c1ccc(O)cc1	1
CCCCCCCC[N+](CCCCCCCC)(CCCCCCCC)CCCCCCCC	1
CCN(CC)CCNC(=O)c1c(C)[nH]c(/C=C2\C(=O)Nc3ccc(F)cc32)c1C	1
COC(=O)C1=C(C)NC(C)=C(C(=O)OCC(C)C)C1c1ccccc1[N+](=O)[O-] (configuration not stated)	0
C=C(C)C(=O)OCC[N+](C)(C)C	0
Cc1oc(-c2ccccc2)nc1CCC(=O)c1ccc(CC2SC(=O)NC2=O)cc1 (configuration not stated)	0
Fc1ccc(C(c2ccc(F)cc2)N2CCN(C/C=C/c3ccccc3)CC2)cc1	0
CC(C)(C)C(=O)OCOC(=O)[C@@H]1N2C(=O)[C@@H](NC(=O)[C@H](N)c3ccccc3)[C@H]2SC1(C)C	0
CN(C)c1ccc(C2(c3ccc(N(C)C)cc3)OC(=O)c3cc(N(C)C)ccc32)cc1	0
CC1=NC(C)OC1C (configuration not stated)	0
O=C(OCC(COC(=O)c1ccccc1)(COC(=O)c1ccccc1)COC(=O)c1ccccc1)c1ccccc1	0
CCOC(=O)c1nc(C(Cl)(Cl)Cl)n(-c2ccc(Cl)cc2Cl)n1	0
O=C(NO)C1(NS(=O)(=O)c2ccc(Oc3ccc(F)cc3)cc2)CCOCC1	0
NC(=O)CC[C@@H]1NC(=O)[C@H](Cc2ccccc2)NC(=O)[C@H](Cc2ccc(O)cc2)NC(=O)CCSSC[C@@H](C(=O)N2CCC[C@H]2C(=O)N[C@@H](CCCN=C(N)N)C(=O)NCC(N)=O)NC(=O)[C@H](CC(N)=O)NC1=O	0
CNC(=O)c1ccccc1	0
CCC(N)(CO)CO	0
